assay_system: T1, human GFRα3 expressed with a C-terminal hFc tag (human)
T1 construct: also called hGFRα3-hFc
T1 sequence (chain, as listed by the source limits assumed): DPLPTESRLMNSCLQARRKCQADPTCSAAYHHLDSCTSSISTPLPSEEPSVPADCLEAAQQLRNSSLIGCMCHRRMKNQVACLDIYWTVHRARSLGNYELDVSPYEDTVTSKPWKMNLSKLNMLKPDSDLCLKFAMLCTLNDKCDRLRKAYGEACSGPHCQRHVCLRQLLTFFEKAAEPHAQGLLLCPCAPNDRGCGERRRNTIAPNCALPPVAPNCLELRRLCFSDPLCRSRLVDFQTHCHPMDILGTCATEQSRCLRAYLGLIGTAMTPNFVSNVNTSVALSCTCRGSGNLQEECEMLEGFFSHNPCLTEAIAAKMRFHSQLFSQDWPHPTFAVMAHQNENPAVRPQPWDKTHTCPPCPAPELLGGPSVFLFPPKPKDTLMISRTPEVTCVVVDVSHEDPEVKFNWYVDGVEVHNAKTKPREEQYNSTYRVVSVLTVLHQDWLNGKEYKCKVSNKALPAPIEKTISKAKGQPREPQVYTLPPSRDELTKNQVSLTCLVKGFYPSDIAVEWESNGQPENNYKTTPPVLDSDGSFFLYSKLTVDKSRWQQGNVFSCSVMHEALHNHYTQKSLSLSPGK
assay_info: BLI Octet, antigen on anti-hFc tips, 100 ug/mL Ab
So I've got a bunch of binders here, and I need their Bound (nm) values.

Problem: Item under review: H4H2352S (antibody, human IgG4, V domains shown, human IgG4 Fc (H4H); also called H4H2352S-1) VH: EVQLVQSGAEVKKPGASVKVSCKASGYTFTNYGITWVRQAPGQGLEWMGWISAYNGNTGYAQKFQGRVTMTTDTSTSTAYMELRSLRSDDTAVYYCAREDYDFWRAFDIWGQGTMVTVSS VL: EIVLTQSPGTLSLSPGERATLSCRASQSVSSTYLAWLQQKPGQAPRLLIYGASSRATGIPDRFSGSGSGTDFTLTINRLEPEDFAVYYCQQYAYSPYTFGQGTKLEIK . Reported Bound (nm)?
Result: 1.25 nm

Problem: Item under review: H4H2292S (antibody, human IgG4, V domains shown, human IgG4 Fc (H4H)) VH: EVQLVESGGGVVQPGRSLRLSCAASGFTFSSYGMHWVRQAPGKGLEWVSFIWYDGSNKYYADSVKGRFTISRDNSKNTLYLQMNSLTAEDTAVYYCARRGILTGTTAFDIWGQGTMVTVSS VL: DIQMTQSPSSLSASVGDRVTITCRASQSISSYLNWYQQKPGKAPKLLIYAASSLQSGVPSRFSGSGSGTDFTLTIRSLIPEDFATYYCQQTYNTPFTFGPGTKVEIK . Reported Bound (nm)?
Result: 1.04 nm

Problem: Item under review: H4H2342P (antibody, human IgG4, V domains shown, human IgG4 Fc (H4H)) VH: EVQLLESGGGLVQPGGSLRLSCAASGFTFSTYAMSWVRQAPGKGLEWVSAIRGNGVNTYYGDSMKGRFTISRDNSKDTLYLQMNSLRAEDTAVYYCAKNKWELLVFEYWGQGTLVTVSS VL: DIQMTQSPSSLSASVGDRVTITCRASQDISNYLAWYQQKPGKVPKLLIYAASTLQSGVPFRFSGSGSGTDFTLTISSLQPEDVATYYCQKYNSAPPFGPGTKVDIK . Reported Bound (nm)?
Result: 1.59 nm
